Source of measurements: patent US9714245B2

The reader will find reported CC50 at 24 h values listed item by item below.
# protocol description: Cytotoxicity evaluation (MTS assay)
# Type: cell-based, Human
# experimental setup: human, SY5Y-APPWT neuroblastoma cells (expressing APP); SY5Y-APPWT cells, 24 h treatment, MTS
# Experimental: Human neuroblastoma cell line SY5Y-APP^WT was used to assess the cytotoxic effects of each compound. […] After 24 h of treatment, cytotoxicity was determined by using colorimetric MTS assay (CellTiter 96® Aqueous One Solution Cell Proliferation Assay-MTS Promega) according to the protocol of the manufacturer. Absorbance was read at 490 nm and results were expressed as % from control condition considered as 100%.

# annotated cases, reported CC50 at 24 h shown
{"molecule": "Fc1ccc2[nH]c3c(c2c1)CN(CCCN1CCN(CCCN2CCCC2)CC1)CC3", "CC50 at 24 h": "> 100 µM"}
{"molecule": "Cc1ccc2[nH]c3c(c2c1)CN(CCCN1CCN(CCCN(CC(C)C)CC(C)C)CC1)CC3", "CC50 at 24 h": "10 µM"}
{"molecule": "c1ccc2c3c([nH]c2c1)CN(CCCN1CCN(CCCN2CCCCC2)CC1)CC3", "CC50 at 24 h": "> 100 µM"}
{"molecule": "CC(C)CN(CCCN1CCN(CCCN2CCc3[nH]c4ccc(F)cc4c3C2)CC1)CC(C)C", "CC50 at 24 h": "15 µM"}
{"molecule": "CN(C)CCCN1CCN(CCCN2CCc3c([nH]c4ccccc34)C2c2ccccc2)CC1 (centres unmarked)", "CC50 at 24 h": "12 µM"}

Annotate the molecule COc1ccc2[nH]c3c(c2c1)CN(CCCN1CCN(CCCN(CC(C)C)CC(C)C)CC1)CC3 with its measured CC50 at 24 h.
> 10 µM

Annotate the molecule c1ccc2c3c([nH]c2c1)CN(CCCN1CCN(CCN2CCCCC2)CC1)CC3 with its measured CC50 at 24 h.
> 100 µM

Annotate the molecule CC(C)CN(CCCN1CCN(CCCN2CCc3c([nH]c4ccc(Cl)cc34)C2)CC1)CC(C)C with its measured CC50 at 24 h.
> 100 µM

Annotate the molecule Fc1ccc2[nH]c3c(c2c1)CN(CCCN1CCN(CCCN(Cc2ccccc2)Cc2ccccc2)CC1)CC3 with its measured CC50 at 24 h.
4.8 µM

Annotate the molecule COc1ccc2[nH]c3c(c2c1)CN(CCCN1CCN(CCCN2CCCCC2)CC1)CC3 with its measured CC50 at 24 h.
> 100 µM

Annotate the molecule CN(C)CCCN1CCN(CCCN2CCc3c([nH]c4ccccc34)C2)CC1 with its measured CC50 at 24 h.
> 100 µM

* * *

# Tested on: secreted Aβ1-40
# protocol description: Aβ1-40 secretion by APP-transfected neuroblastoma cells (ELISA)
# Assay type: cell-based
# experimental setup: Homo sapiens, Neuroblastoma cell; SKNSH-SYSY APPWT cells; concentration decreasing secreted Aβ1-40 to 50% of basal amount
endpoint label: pIC50
Units for pIC50: none; it is -log10 of a concentration expressed in mol/L.

{"compound": "CC(C)CN(CCN1CCN(CCCN2CCc3c([nH]c4ccccc34)C2)CC1)CC(C)C", "pIC50": 5.52}
{"compound": "COc1ccc2[nH]c3c(c2c1)CN(CCCN1CCN(CCCN2CCCCC2)CC1)CC3", "pIC50": 5.00}
{"compound": "COc1ccc2[nH]c3c(c2c1)CN(CCCN1CCN(CCN(CC(C)C)CC(C)C)CC1)CC3", "pIC50": 5.60}
{"compound": "c1ccc2c3c([nH]c2c1)CN(CCCN1CCN(CCN2CCCCC2)CC1)CC3", "pIC50": 5.30}
{"compound": "Cc1ccc2[nH]c3c(c2c1)CN(CCCN1CCN(CCCN(CC(C)C)CC(C)C)CC1)CC3", "pIC50": 6.00}
{"compound": "c1ccc2c3c([nH]c2c1)CN(CCCN1CCN(CCCN2CCCCC2)CC1)CC3", "pIC50": 5.30}
{"compound": "CN(C)CCCN1CCN(CCCN2CCc3c([nH]c4ccccc34)C2c2ccccc2)CC1 (stereo not drawn)", "pIC50": 5.60}

# evaluate next
Annotate the compound Fc1ccc2[nH]c3c(c2c1)CN(CCCN1CCN(CCCN2CCCC2)CC1)CC3 with its measured pIC50.
5.52

* * *

# Tested on: AICD
# protocol description: Quantification of AICD by Western blot in SY5Y-APPWT cells
# Assay type: cell-based, Human
# experimental setup: compared to a control with a value of 100
endpoint label: AICD (10 μM) (arbitrary units)
API: value field is a number in arbitrary units; no unit string.

{"compound": "COc1ccc2[nH]c3c(c2c1)CN(CCCN1CCN(CCCN(CC(C)C)CC(C)C)CC1)CC3 [Compound 3.1b]", "assay target": "AICD", "obs value": 16400}

Annotate the compound CC(C)CN(CCCN1CCN(CCCN2CCc3[nH]c4ccccc4c3C2)CC1)CC(C)C [Compound 3.1a] with its measured AICD (10 μM).
1081

Annotate the compound CN(C)CCCN1CCN(CCCN2CCc3c([nH]c4ccccc34)C2)CC1 [Compound 3.2d] with its measured AICD (10 μM).
41661

Annotate the compound Fc1ccc2[nH]c3c(c2c1)CN(CCCN1CCN(CCCN2CCCC2)CC1)CC3 [Compound 3.1f] with its measured AICD (10 μM).
1011

* * *

The reader will find reported AICD (10 μM) values listed item by item below.
# Tested on: AICD
# protocol description: Quantification of AICD by Western blot in SY5Y-APPWT cells
# Assay type: cell-based, Human
# experimental setup: compared to a control with a value of 100

# annotated cases, reported AICD (10 μM) shown
{"compound": "CC(C)CN(CCCN1CCN(CCCN2CCc3c([nH]c4ccc(Cl)cc34)C2)CC1)CC(C)C [Compound 3.2b]", "AICD (10 μM)": "7417 arbitrary units"}
{"compound": "CN(C)CCCN1CCN(CCCN2CCc3c([nH]c4ccccc34)C2c2ccccc2)CC1 (stereo not drawn) [Compound 3.2e]", "AICD (10 μM)": "4765 arbitrary units"}

# evaluate next
Annotate the compound CC(C)CN(CCCN1CCN(CCCN2CCc3[nH]c4ccc(F)cc4c3C2)CC1)CC(C)C [Compound 3.1d] with its measured AICD (10 μM).
84225 arbitrary units
